- EXPERIMENTAL SYSTEM: Serine/threonine-protein kinase TBK1 (Homo sapiens) (UniProt Q9UHD2)
- Sequence (Q9UHD2 whole entry): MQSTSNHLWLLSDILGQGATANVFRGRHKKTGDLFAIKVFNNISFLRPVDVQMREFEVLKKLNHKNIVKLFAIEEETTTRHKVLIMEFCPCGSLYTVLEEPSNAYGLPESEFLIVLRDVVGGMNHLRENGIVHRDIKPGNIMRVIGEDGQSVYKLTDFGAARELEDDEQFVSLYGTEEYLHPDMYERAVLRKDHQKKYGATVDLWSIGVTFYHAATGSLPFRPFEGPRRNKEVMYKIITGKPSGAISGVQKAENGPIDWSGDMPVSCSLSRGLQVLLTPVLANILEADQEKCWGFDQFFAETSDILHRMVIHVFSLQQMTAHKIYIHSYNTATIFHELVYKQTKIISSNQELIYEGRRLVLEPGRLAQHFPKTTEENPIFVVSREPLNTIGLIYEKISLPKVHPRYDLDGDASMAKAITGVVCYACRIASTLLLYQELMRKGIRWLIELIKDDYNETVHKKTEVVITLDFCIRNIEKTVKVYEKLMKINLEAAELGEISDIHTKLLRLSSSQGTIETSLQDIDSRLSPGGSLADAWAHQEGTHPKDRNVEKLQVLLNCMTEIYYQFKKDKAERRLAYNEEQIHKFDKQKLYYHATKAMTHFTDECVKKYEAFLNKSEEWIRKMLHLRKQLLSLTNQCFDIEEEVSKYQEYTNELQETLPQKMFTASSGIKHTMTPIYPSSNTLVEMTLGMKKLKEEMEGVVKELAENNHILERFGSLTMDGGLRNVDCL
- TEST SETTINGS: at 1 µM
RESULT TYPE: inhibition (%)

Known inhibition results, listed for orientation:
# SMILES REPR, inhibition [%]
data = [
    ("N#Cc1c(NC(=O)CN2CCOCC2)sc2c1CCCC2", -6),
    ("COC(=O)Nc1nc2ccc(S(=O)(=O)c3ccc(NC(=O)Nc4cc(C(F)(F)F)ccc4F)cc3)cc2[nH]1", 0),
    ("c1ccc(-c2nc3n(c2-c2ccc4c(c2)OCO4)CCC3)nc1", 5),
]

1. Nc1ncc(-c2cccc(S(N)(=O)=O)c2)c2scc(-c3ccc(F)c(Cl)c3)c12
2. Cc1ccc(Nc2ccnc(Nc3cccc(C(N)=O)c3)n2)cc1O
-- ask Given the two records 1 and 2 , choose the one whose inhibition value is lower. Answer by quoting the chosen item's label.
-- reply 1

###

- EXPERIMENTAL SYSTEM: Inhibitor of nuclear factor kappa-B kinase subunit epsilon (Homo sapiens) (UniProt Q14164)
- TEST SETTINGS: at 1 µM
RESULT TYPE: inhibition (%)

Known inhibition results, listed for orientation:
# SMILES REPR, inhibition (%)
measured = [
    ("CCS(=O)(=O)c1ccc(OC)c(Nc2ncc(-c3cccc(C(C)=O)c3)o2)c1", 1),
    ("CNC(=O)Oc1cc(C)c(/C=C/c2cncc(C(=O)NC)c2)c(C)c1", -1),
    ("NS(=O)(=O)c1cccc(Nc2cc(-c3ccc(F)cc3)n[nH]2)c1", 5),
    ("[O-][S+]1CCN(Cc2ccc(-c3ccc4ncnc(Nc5ccc(OCc6ccccc6)c(Cl)c5)c4c3)o2)CC1", -3),
    ("COc1ccc(CNC(=O)c2ccc(-c3cc(-c4nnc(C)o4)ccc3C)cc2)cc1", -3),
]

a. Cc1ccc(O)cc1Nc1ccnc2cc(-c3ccccn3)ccc12
b. CN(C)CCCn1c(-c2nonc2N)nc2cnccc21
-- ask Form field 'greater inhibition' accepts a or b ; which applies? Answer by quoting the chosen item's label.
-- reply b
(b: 2%, a: 1%)

P. O=C(Nc1n[nH]c2nc(-c3ccco3)ccc12)C1CC1
Q. CCS(=O)(=O)c1ccc(OC)c(Nc2ncc(-c3cccc(OC)c3)o2)c1
-- ask Given the two records P and Q , choose the one whose inhibition value is lower. Answer by quoting the chosen item's label.
-- reply P

###

- EXPERIMENTAL SYSTEM: Tyrosine-protein kinase Mer (Homo sapiens)
- TEST SETTINGS: at 10 µM
RESULT TYPE: inhibition (%)

P. O=C1NC(=O)C(c2ccc(Cl)cc2)=C1Nc1ccc(Cl)c(C(=O)O)c1
Q. CN(C)CCCn1c(-c2nonc2N)nc2cnccc21
-- ask Form field 'greater inhibition' accepts P or Q ; which applies? Answer by quoting the chosen item's label.
-- reply P
(P: 62%, Q: 23%)

a. C[C@@H](Oc1cc(-n2cnc3ccc(OC4CCN(C)CC4)cc32)sc1C(N)=O)c1ccccc1Cl
b. Cc1ccc(C(=O)NC2CC2)cc1-c1ccc2[nH]ncc2c1
-- ask Form field 'greater inhibition' accepts a or b ; which applies? Answer by quoting the chosen item's label.
-- reply b
(b: 6%, a: -2%)

###

- EXPERIMENTAL SYSTEM: Inhibitor of nuclear factor kappa-B kinase subunit alpha (Homo sapiens)
- TEST SETTINGS: at 1 µM
RESULT TYPE: inhibition (%)

Known inhibition results, listed for orientation:
# SMILES REPR, inhibition, %
records = [
    ("N#Cc1c(NC(=O)c2ccccc2F)sc2c1CCCC2", -3),
    ("Fc1ccc(-c2cc(-c3c[nH]nc3-c3ccccn3)ccn2)cc1", 6),
    ("CCn1c(-c2nonc2N)nc2ccc(F)cc21", 2),
    ("NC(=O)c1cccc(Nc2nccc(Nc3cccc4[nH]ncc34)n2)c1", -5),
    ("Cc1cc(Cl)cc2c1NC(=O)C2=NNc1ccc(S(N)(=O)=O)cc1", 11),
]

1. Nc1ncnc2occ(-c3ccc(NC(=O)Nc4cccc(C(F)(F)F)c4)cc3)c12
2. NC(=O)c1ccc(-c2nc(-c3ccccn3)c(-c3ccc4c(c3)OCO4)[nH]2)cc1
3. COc1ccc(COc2ccc(Cc3cnc(N)nc3N)cc2OC)cc1
4. CS(=O)(=O)CCNCc1ccoc1-c1ccc2ncnc(Nc3ccc(OCc4ccccc4)cc3)c2c1
5. CCn1c(-c2nonc2N)nc2ccccc21
-- ask Hello, I need these entries ordered by inhibition, highest reading first. Thanks! Note for the reader: the ranking is given by listing the labels in the order requested.
-- reply 5, 1, 3, 4, 2
(5: 24%, 1: 3%, 3: 2%, 4: -2%, 2: -3%)

1. CC(=O)Nc1cccc(C#Cc2cncnc2Nc2ccc(OCc3cccc(F)c3)c(Cl)c2)n1
2. CCC(=O)Nc1ccc(C)c(-c2ccc(C(=O)NCC3CC3)cc2)c1
3. O=C(Nc1ccc(Oc2ccc3[nH]c(NC(=O)c4ccco4)nc3c2)cc1)Nc1cc(C(F)(F)F)ccc1F
4. CCn1cc(-c2ccnc3[nH]ccc23)c(-c2cccc(NC(=O)Nc3ccc(OCc4ccccc4)cc3)c2)n1
5. Cc1ccc(O)cc1Nc1ccnc2ccc(S(C)(=O)=O)cc12
-- ask Hello, I need these entries ordered by inhibition, highest reading first. Thanks! Note for the reader: the ranking is given by listing the labels in the order requested.
-- reply 5, 1, 3, 2, 4
(5: 5%, 1: 2%, 3: -1%, 2: -2%, 4: -3%)

a. CS(=O)(=O)CCNCc1nc(-c2ccc3ncnc(Nc4ccc(F)c(Cl)c4)c3c2)cs1
b. Cc1ccc(C(=O)NC2CCC2)cc1-c1ccc(C(=O)NCC2CC2)cc1
c. CN(C)CCNC(=O)Nc1ccc(N(C)c2ccnc(Nc3ccc(CS(C)(=O)=O)cc3)n2)cc1
-- ask Sort low-to-high on inhibition, please. Note for the reader: the ranking is given by listing the labels in the order requested.
-- reply c, a, b

###

- EXPERIMENTAL SYSTEM: Inhibitor of nuclear factor kappa-B kinase subunit epsilon (Homo sapiens)
- TEST SETTINGS: at 1 µM
RESULT TYPE: inhibition (%)

# SMILES REPR, EXPERIMENTAL SYSTEM, inhibition [%]
records = [
    ("CS(=O)(=O)CCNCc1ccoc1-c1ccc2ncnc(Nc3ccc(OCc4ccccc4)cc3)c2c1", "Inhibitor of nuclear factor kappa-B kinase subunit epsilon (Homo sapiens)", 3),
]

P. COc1cc2ncn(-c3cc(OCc4cccs4)c(C(N)=O)s3)c2cc1OC
Q. O=C(Nc1n[nH]c2cc(-c3cc(F)ccc3F)ccc12)C1CC1
-- ask Given the two records P and Q , choose the one whose inhibition value is lower. Answer by quoting the chosen item's label.
-- reply Q

A. CCn1c(-c2nonc2N)nc2c(C#CC(C)(C)O)ncc(OCC3CCNCC3)c21
B. Clc1ccc(CNc2nccc(-c3cnn4ncccc34)n2)cc1
-- ask Form field 'greater inhibition' accepts A or B ; which applies? Answer by quoting the chosen item's label.
-- reply A
(A: 96%, B: 0%)

###

- EXPERIMENTAL SYSTEM: Inhibitor of nuclear factor kappa-B kinase subunit epsilon (Homo sapiens)
- Sequence (whole entry): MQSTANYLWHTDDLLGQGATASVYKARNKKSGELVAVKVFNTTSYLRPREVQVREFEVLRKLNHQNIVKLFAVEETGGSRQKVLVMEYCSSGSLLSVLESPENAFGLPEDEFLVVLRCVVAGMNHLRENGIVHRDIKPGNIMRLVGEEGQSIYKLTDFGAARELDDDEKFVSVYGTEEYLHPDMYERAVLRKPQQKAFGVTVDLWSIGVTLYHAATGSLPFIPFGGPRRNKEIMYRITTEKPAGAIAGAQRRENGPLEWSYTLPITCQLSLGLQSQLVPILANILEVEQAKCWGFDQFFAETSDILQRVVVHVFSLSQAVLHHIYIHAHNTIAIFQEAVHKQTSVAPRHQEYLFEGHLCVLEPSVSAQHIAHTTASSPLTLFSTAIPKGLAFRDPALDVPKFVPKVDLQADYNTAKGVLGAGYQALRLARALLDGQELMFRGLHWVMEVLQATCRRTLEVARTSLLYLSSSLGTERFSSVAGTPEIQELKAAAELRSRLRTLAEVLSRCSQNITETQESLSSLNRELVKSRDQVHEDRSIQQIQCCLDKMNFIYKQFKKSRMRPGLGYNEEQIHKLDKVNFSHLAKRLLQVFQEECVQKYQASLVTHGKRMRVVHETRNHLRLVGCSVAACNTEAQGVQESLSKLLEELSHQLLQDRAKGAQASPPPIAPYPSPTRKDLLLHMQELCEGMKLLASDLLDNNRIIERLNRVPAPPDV
- TEST SETTINGS: at 1 µM
RESULT TYPE: inhibition (%)

# SMILES REPR, inhibition, %
records = [
    ("CC(=O)Nc1cccc(C#Cc2cncnc2Nc2ccc(OCc3cccc(F)c3)c(Cl)c2)n1", -1),
]

a. COc1cccc(COc2cc(-n3cnc4ccccc43)sc2C(N)=O)c1
b. N#Cc1ccc2c(-c3ccnc(NC4CC4)n3)c(-c3ccc(F)cc3)nn2c1
-- ask Given the two records a and b , choose the one whose inhibition value is lower. Answer by quoting the chosen item's label.
-- reply a
(a: -1%, b: 1%)
